Data provenance: patent US8507463B2

- Test: High humidity test (room temperature, relative humidity 75±5%)
- Format: physicochemical
- Run parameters: 25° C., day 5
Reported Weight gain after moisture absorption (%) values are given for each entry in this list.
Please respond with the number in % and leave the unit unwritten.

Example entries and their recorded answers appear below.
{"Molecule": "C[C@H](Cn1cnc2c(N)ncnc21)OCP(=O)(OCOC(=O)C(C)(C)C)OCOC(=O)C(C)(C)C [amorphous TD]", "Measured number": 1.0}
{"Molecule": "C[C@H](Cn1cnc2c(N)ncnc21)OCP(=O)(OCOC(=O)C(C)(C)C)OCOC(=O)C(C)(C)C [TD crystalline form A]", "Measured number": 4.3}
{"Molecule": "CC(Cn1cnc2c(N)ncnc21)OCP(=O)(OCOC(=O)C(C)(C)C)OCOC(=O)C(C)(C)C.CC1(C)CCC2(C(=O)O)CCC3(C)C(=CCC4C5(C)CCC(O)C(C)(C)C5CCC43C)C2C1 (centres unmarked) [TD oleanolate]", "Measured number": 0}
{"Molecule": "C[C@H](Cn1cnc2c(N)ncnc21)OCP(=O)(OCOC(=O)C(C)(C)C)OCOC(=O)C(C)(C)C.O=C(O)/C=C/C(=O)O [TD fumarate]", "Measured number": 0}

Now for a further molecule.
Note to self: Weight gain after moisture absorption (%) recorded for C[C@H](Cn1cnc2c(N)ncnc21)OCP(=O)(OCOC(=O)C(C)(C)C)OCOC(=O)C(C)(C)C [TD crystalline form B] was 0

---

- Type: physicochemical
- Run parameters: 0.1N HCl
Value kind: solubility conclusion, 0.1N HCl

{"Molecule": "CC(Cn1cnc2c(N)ncnc21)OCP(=O)(OCOC(=O)C(C)(C)C)OCOC(=O)C(C)(C)C.CC1(C)CCC2(C(=O)O)CCC3(C)C(=CCC4C5(C)CCC(O)C(C)(C)C5CCC43C)C2C1 (centres unmarked) [TD oleanolate]", "solubility conclusion, 0.1N HCl": "not"}
{"Molecule": "C[C@H](Cn1cnc2c(N)ncnc21)OCP(=O)(OCOC(=O)C(C)(C)C)OCOC(=O)C(C)(C)C [TD crystalline form A]", "solubility conclusion, 0.1N HCl": "soluble"}
{"Molecule": "C[C@H](Cn1cnc2c(N)ncnc21)OCP(=O)(OCOC(=O)C(C)(C)C)OCOC(=O)C(C)(C)C [amorphous TD]", "solubility conclusion, 0.1N HCl": "soluble"}
{"Molecule": "C[C@H](Cn1cnc2c(N)ncnc21)OCP(=O)(OCOC(=O)C(C)(C)C)OCOC(=O)C(C)(C)C.O=C(O)/C=C/C(=O)O [TD fumarate]", "solubility conclusion, 0.1N HCl": "soluble"}

Note to self: solubility conclusion, 0.1N HCl recorded for C[C@H](Cn1cnc2c(N)ncnc21)OCP(=O)(OCOC(=O)C(C)(C)C)OCOC(=O)C(C)(C)C [TD crystalline form B] was soluble

---

- Test: Light exposure test (4500±500 Lx)
- Assay type: physicochemical
- Run parameters: light 4500±500 Lx; day 10
Reported content (%) values are given for each entry in this list.
Give your result as the value with the unit written after it.

Example entries and their recorded answers appear below.
{"Compound": "CC(Cn1cnc2c(N)ncnc21)OCP(=O)(OCOC(=O)C(C)(C)C)OCOC(=O)C(C)(C)C.CC1(C)CCC2(C(=O)O)CCC3(C)C(=CCC4C5(C)CCC(O)C(C)(C)C5CCC43C)C2C1 (centres unmarked) [TD oleanolate]", "content (%)": "99.3%"}
{"Compound": "C[C@H](Cn1cnc2c(N)ncnc21)OCP(=O)(OCOC(=O)C(C)(C)C)OCOC(=O)C(C)(C)C [TD crystalline form A]", "content (%)": "98.5%"}
{"Compound": "C[C@H](Cn1cnc2c(N)ncnc21)OCP(=O)(OCOC(=O)C(C)(C)C)OCOC(=O)C(C)(C)C.O=C(O)/C=C/C(=O)O [TD fumarate]", "content (%)": "99.1%"}
{"Compound": "C[C@H](Cn1cnc2c(N)ncnc21)OCP(=O)(OCOC(=O)C(C)(C)C)OCOC(=O)C(C)(C)C [amorphous TD]", "content (%)": "98.1%"}

Now for a further compound.
Note to self: content (%) recorded for C[C@H](Cn1cnc2c(N)ncnc21)OCP(=O)(OCOC(=O)C(C)(C)C)OCOC(=O)C(C)(C)C [TD crystalline form B] was 98.7%
